# Test system: MCF7
# TEST NAME: cells
# SETTINGS: Homo sapiens, MCF7, 72 h
# Description: Cytotoxicity against human MCF7 cells assessed as reduction in cell viability after 72 hrs by MTT assay
pIC50: −log10 of the molar value.
Could you label it YES if measured pIC50 is 5 or higher, and NO otherwise?

[
  {
    "SMILES INPUT": "COC(=O)[C@]1(C)CCC[C@]2(C)c3ccc(C(C)C)c(NC(=O)Cn4cc(-c5cccc([N+](=O)[O-])c5)nn4)c3CC[C@@H]12",
    "CATEGORY": "NO"
  },
  {
    "SMILES INPUT": "COC(=O)[C@]1(C)CCC[C@]2(C)c3ccc(C(C)C)c(NC(=O)Cn4cc(-c5ccccc5)nn4)c3CC[C@@H]12",
    "CATEGORY": "YES"
  },
  {
    "SMILES INPUT": "COC(=O)[C@]1(C)CCC[C@]2(C)c3ccc(C(C)C)c(NC(=O)Cn4cc(-c5ccncc5)nn4)c3CC[C@@H]12",
    "CATEGORY": "NO"
  },
  {
    "SMILES INPUT": "COC(=O)[C@]1(C)CCC[C@]2(C)c3ccc(C(C)C)c(NC(=O)Cn4cc(-c5cccc(NC(C)=O)c5)nn4)c3CC[C@@H]12",
    "CATEGORY": "YES"
  },
  {
    "SMILES INPUT": "COC(=O)[C@]1(C)CCC[C@]2(C)c3ccc(C(C)C)c(NC(=O)CCl)c3CC[C@@H]12",
    "CATEGORY": "NO"
  },
  {
    "SMILES INPUT": "COC(=O)[C@]1(C)CCC[C@]2(C)c3ccc(C(C)C)c(NC(=O)Cn4cc(-c5cccs5)nn4)c3CC[C@@H]12",
    "CATEGORY": "NO"
  },
  {
    "SMILES INPUT": "CCOC(=O)c1cn(CC(=O)Nc2c(C(C)C)ccc3c2CC[C@H]2[C@](C)(C(=O)OC)CCC[C@]32C)nn1",
    "CATEGORY": "NO"
  },
  {
    "SMILES INPUT": "COC(=O)[C@]1(C)CCC[C@]2(C)c3ccc(C(C)C)c(NC(=O)Cn4cc([Si](C)(C)C)nn4)c3CC[C@@H]12",
    "CATEGORY": "NO"
  },
  {
    "SMILES INPUT": "COC(=O)[C@]1(C)CCC[C@]2(C)c3ccc(C(C)C)c(NC(=O)CN=[N+]=[N-])c3CC[C@@H]12",
    "CATEGORY": "NO"
  },
  {
    "SMILES INPUT": "COC(=O)[C@]1(C)CCC[C@]2(C)c3ccc(C(C)C)c(NC(=O)Cn4cc(-c5cccc(NC(=O)OC(C)(C)C)c5)nn4)c3CC[C@@H]12",
    "CATEGORY": "YES"
  },
  {
    "SMILES INPUT": "COC(=O)[C@]1(C)CCC[C@]2(C)c3ccc(C(C)C)c(NC(=O)Cn4cc(-c5ccccc5F)nn4)c3CC[C@@H]12",
    "CATEGORY": "NO"
  },
  {
    "SMILES INPUT": "COC(=O)[C@]1(C)CCC[C@]2(C)c3ccc(C(C)C)c(NC(=O)Cn4cc(Cc5ccccc5)nn4)c3CC[C@@H]12",
    "CATEGORY": "NO"
  }
]

meta.source: ChEMBL document CHEMBL4130367
